FYI, the data here is from patent US10758542B2.

Let's look at some compounds and their measured inhibition at 1 µM.
Target: Human Jak2 kinase domain (Homo sapiens (Human), UniProt O60674)
Sequence (O60674 808-1132): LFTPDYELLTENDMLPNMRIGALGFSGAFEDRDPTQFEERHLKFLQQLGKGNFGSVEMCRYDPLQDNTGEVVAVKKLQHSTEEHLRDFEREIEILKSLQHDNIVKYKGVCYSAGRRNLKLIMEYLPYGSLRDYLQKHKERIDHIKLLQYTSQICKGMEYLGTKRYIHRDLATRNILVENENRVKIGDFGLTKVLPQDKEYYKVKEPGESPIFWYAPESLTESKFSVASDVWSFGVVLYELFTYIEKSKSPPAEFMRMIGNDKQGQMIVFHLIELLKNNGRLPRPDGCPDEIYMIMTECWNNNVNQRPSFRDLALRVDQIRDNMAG
Experiment: Jak2 inhibition assay (Omnia kinase)
Type: biochemical
Conditions: read-out: Jak2 Enzyme (% inhibition at 1000 nM), Table 1; at 1000 nM test compound
Source text: The assays described in Examples C, D, E and F for the determination of JAK1, JAK2, JAK3 and Tyk2 kinase activity, respectively, utilized the Omnia® Kinase fluorescence peptide substrate-based technology (Invitrogen). The specific components of the assay mixture are described in Examples C, D and E. […] Two-μL aliquots of these were transferred to a fresh plate for a ten-fold intermediate dilution with assay buffer. […]
outcome.measure: inhibition at 1 µM (%)

> print(dat)
                                   compound                        measurement.target  unit.text  test.result
1  CC1(O)CCC(NC(=O)c2cnn3ccc(N4CCC[C@@H]4c4cc(F)ccc4F)nc23)CC1 (stereo partly shown) [Example 51]  Human Jak2 kinase domain (Homo sapiens (Human), UniProt O60674)          %         82.5
2  C[C@@H](NC(=O)c1cnn2ccc(N3CCC[C@@H]3c3cncc(F)c3)nc12)C(F)(F)F [Example 129]  Human Jak2 kinase domain (Homo sapiens (Human), UniProt O60674)          %         25.2
3  O=C(N[C@@H]1CCC[C@H]1O)c1cnn2ccc(N3CCC[C@@H]3c3cncc(F)c3)nc12 [Example 133]  Human Jak2 kinase domain (Homo sapiens (Human), UniProt O60674)          %         14.4
4  CCc1ncc(F)cc1[C@H]1CCCN1c1ccn2ncc(C(=O)N[C@H]3CC[C@H](O)C3)c2n1 [Example 200]  Human Jak2 kinase domain (Homo sapiens (Human), UniProt O60674)          %         12.5
